Reported EC50, CD112R/CD112 reporter is given for each of the following binders.
Target: T1, human CD112R on Jurkat CD112R effector cells (human, UniProt Q6DKI7 1-326)
T1 sequence (looked up): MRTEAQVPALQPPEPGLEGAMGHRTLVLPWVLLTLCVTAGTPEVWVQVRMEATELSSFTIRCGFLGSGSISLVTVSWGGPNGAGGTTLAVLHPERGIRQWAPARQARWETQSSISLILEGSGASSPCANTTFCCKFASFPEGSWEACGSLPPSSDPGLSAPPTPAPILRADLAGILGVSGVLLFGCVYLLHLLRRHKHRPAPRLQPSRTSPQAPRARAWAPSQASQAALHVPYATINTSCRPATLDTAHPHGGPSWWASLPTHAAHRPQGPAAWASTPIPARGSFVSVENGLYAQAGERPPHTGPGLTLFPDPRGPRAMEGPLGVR
Test: cell-based or functional assay

# binder, EC50, CD112R/CD112 reporter / µg/mL
measured = [
    ("Hu54 (antibody, IgG4, V domains shown, humanized IgG4) VH: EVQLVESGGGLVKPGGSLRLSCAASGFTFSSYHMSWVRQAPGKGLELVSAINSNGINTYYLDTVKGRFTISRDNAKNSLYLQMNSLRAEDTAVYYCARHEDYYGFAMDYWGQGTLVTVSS VL: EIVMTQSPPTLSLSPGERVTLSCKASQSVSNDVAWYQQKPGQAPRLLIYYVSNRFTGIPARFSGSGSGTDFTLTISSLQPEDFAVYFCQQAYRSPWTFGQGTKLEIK", 0.0241),
    ("Hu37 (antibody, IgG4, V domains shown) VH: EVQLVESGGGLVQPGGSLRLSCAASGFTFSSYHMSWVRQAPGKGLELVSAINSNVISTYYLDTVKGRFTISRDNAKNSLYLQMNSLRAEDTAVYYCARHEDYYGFAMDYWGQGTLVTVSS VL: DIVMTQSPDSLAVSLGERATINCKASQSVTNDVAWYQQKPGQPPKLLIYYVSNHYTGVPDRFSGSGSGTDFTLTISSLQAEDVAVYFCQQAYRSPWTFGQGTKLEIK", 0.0355),
    ("Hu33 (antibody, IgG4, V domains shown, humanized IgG4) VH: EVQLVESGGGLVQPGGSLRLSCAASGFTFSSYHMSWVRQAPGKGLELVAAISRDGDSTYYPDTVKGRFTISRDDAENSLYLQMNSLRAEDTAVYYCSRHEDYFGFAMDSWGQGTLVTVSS VL: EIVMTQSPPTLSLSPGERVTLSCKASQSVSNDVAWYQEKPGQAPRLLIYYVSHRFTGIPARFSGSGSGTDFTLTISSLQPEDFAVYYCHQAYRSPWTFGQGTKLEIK", 0.0341),
    ("Hu50 (antibody, IgG4, V domains shown, humanized IgG4) VH: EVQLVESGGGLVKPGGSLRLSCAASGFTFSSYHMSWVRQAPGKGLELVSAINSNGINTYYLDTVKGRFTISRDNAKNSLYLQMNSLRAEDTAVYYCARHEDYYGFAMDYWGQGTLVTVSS VL: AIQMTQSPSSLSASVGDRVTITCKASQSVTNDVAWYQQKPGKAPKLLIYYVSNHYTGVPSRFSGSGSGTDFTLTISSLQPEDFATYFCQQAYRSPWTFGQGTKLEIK", 0.0268),
    ("Hu42 (antibody, IgG4, V domains shown) VH: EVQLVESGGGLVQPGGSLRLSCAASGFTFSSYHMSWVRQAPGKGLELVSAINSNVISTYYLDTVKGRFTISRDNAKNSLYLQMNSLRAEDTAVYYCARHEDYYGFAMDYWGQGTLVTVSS VL: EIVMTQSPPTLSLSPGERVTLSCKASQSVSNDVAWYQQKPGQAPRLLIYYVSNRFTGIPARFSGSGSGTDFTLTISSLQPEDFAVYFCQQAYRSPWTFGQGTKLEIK", 0.0355),
    ("Hu13 (antibody, IgG4, V domains shown, humanized IgG4) VH: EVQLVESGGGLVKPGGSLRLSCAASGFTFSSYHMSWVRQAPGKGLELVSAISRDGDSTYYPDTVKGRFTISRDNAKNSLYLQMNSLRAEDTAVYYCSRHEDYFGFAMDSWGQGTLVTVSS VL: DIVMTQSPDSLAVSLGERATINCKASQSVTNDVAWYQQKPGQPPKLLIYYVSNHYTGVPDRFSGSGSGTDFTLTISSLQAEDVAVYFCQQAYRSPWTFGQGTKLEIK", 0.0252),
    ("Hu3 (antibody, IgG4, V domains shown, humanized IgG4; also called Hu-03) VH: EVQLVESGGGLVQPGGSLRLSCAASGFTFSSYHMSWVRQAPGKGLELVAAINSNDINTYYLDTVKGRFTISRDIAKNSLYLQMNSLRAEDTAVYYCARHEDYYGFAMDYWGQGTLVTVSS VL: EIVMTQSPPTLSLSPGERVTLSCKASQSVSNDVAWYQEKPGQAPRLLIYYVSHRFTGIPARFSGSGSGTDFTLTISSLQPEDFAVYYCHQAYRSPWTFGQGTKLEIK", 0.038),
    ("Hu6 (antibody, IgG4, V domains shown, humanized IgG4; also called Hu-06) VH: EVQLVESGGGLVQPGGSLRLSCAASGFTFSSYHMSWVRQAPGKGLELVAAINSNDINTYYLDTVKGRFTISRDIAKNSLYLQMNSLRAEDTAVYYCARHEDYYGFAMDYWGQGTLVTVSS VL: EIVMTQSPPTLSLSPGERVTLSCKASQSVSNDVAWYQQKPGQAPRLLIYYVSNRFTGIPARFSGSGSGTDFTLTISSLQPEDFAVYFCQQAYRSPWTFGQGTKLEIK", 0.0529),
    ("Hu10 (antibody, IgG4, V domains shown, humanized IgG4) VH: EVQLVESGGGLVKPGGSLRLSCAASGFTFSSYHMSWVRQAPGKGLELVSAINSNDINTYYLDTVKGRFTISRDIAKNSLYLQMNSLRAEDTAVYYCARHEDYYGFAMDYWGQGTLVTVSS VL: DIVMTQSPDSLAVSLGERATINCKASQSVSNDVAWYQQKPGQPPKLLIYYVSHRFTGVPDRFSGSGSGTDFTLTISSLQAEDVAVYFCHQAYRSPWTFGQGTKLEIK", 0.0377),
    ("Hu53 (antibody, IgG4, V domains shown, humanized IgG4) VH: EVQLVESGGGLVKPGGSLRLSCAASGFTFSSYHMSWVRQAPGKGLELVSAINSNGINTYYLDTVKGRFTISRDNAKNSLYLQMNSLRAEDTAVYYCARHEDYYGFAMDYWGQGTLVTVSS VL: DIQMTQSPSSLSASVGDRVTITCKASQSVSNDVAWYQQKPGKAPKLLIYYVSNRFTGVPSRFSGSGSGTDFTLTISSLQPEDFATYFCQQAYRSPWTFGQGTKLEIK", 0.023),
]
